The values you see were collected from ChEMBL document CHEMBL3352784.

assay: Plasma concentration in C57BL/6 mouse at 1 mg/kg, ip after 2.5 hrs; format: ADME, organism-based; design: dose 1 mg/kg, route intraperitoneal
Experimental Readout: concentration at 2.5 h (nM)
Please reply with the bare figure in nM and do not write the unit itself.

-- ask So what does the record say about concentration at 2.5 h for Cn1cc(C2(c3cc(C(=O)O)ccn3)N[C@@H](c3nc(-c4ccc(F)cc4)c[nH]3)Cc3c2[nH]c2ccccc32)cn1 (single isomer, unassigned; 3A) ?
-- reply 74

----------
assay: in vivo; details: dog, iv, 20 mg/kg
Experimental Readout: Cmax at 0.5 h (µM)
Write the value in µM as a bare number.

-- ask Any idea what its Cmax at 0.5 h is? The compound is Cn1cc(C2(c3cc(C(=O)O)ccn3)N[C@@H](c3nc(-c4ccc(F)cc4)c[nH]3)Cc3c2[nH]c2ccccc32)cn1 (single isomer, unassigned; 3A)
-- reply 199

----------
target: Somatostatin receptor type 3 (Mus musculus); experiment: Antagonist activity at mouse SSTR3 expressed in CHO cells assessed as cAMP level by fluorescence analysis relative to control; assay type: functional, cell-based; set-up: concentration or dose not given beside the values; settings: concentration not given here
Experimental Readout: inhibition (%)
Return type: number; implicit unit %.

For orientation, consider the following solved cases.
[
  {
    "Compound": "Cn1cc(C2(c3cc(C(=O)O)ccn3)N[C@@H](c3nc(-c4ccc(F)cc4)c[nH]3)Cc3c2[nH]c2ccccc32)cn1 (single isomer, unassigned; 3B)",
    "inhibition (%)": 70
  },
  {
    "Compound": "Cn1cc(C2(c3cccc(C(=O)O)n3)N[C@@H](c3nc(-c4ccc(F)cc4)c[nH]3)Cc3c2[nH]c2ccccc32)cn1 (single isomer, unassigned; 2A)",
    "inhibition (%)": 101
  },
  {
    "Compound": "Cn1cc(C2(c3cc(C(=O)O)ccn3)N[C@@H](c3nc(-c4ccc(F)cc4)c[nH]3)Cc3c2[nH]c2ccccc32)cn1 (single isomer, unassigned; 3A)",
    "inhibition (%)": 81
  }
]

-- ask Requested read-out: inhibition. Entry: CCOC(=O)c1ccc(C2(c3cnn(C)c3)N[C@@H](c3nc(-c4ccc(F)cc4)c[nH]3)Cc3c2[nH]c2ccccc32)nc1 (single isomer, unassigned; 9B)
-- reply 66

-- ask I would be grateful if you could share the reported inhibition for CCOC(=O)c1ccc(C2(c3cnn(C)c3)N[C@@H](c3nc(-c4ccc(F)cc4)c[nH]3)Cc3c2[nH]c2ccccc32)nc1 (single isomer, unassigned; 9A) .
-- reply 96

-- ask Give its inhibition value. Item: Cn1cc([C@@]2(c3cncc(C(=O)O)c3)N[C@@H](c3nc(-c4ccc(F)cc4)c[nH]3)Cc3c2[nH]c2ccccc32)cn1
-- reply 67

-- ask // returns reported inhibition for input CCOC(=O)c1ccnc([C@@]2(c3cnn(C)c3)N[C@@H](c3nc(-c4ccc(F)cc4)c[nH]3)Cc3c2[nH]c2ccccc32)c1
-- reply 85

-- ask Could you share which inhibition value was measured for CCOC(=O)c1ccnc(C2(c3cnn(C)c3)N[C@@H](c3nc(-c4ccc(F)cc4)c[nH]3)Cc3c2[nH]c2ccccc32)c1 (single isomer, unassigned) ?
-- reply 91

-- ask Quick one: inhibition of CCOC(=O)c1cncc([C@]2(c3cnn(C)c3)N[C@@H](c3nc(-c4ccc(F)cc4)c[nH]3)Cc3c2[nH]c2ccccc32)c1 ?
-- reply 99

-- ask Tell me the measured inhibition of Cn1cc(C2(c3cccc(C(=O)O)n3)N[C@@H](c3nc(-c4ccc(F)cc4)c[nH]3)Cc3c2[nH]c2ccccc32)cn1 (single isomer, unassigned; 2B) , please.
-- reply 69

----------
biological target: Somatostatin receptor type 3 (Mus musculus, UniProt P30935); assay: Antagonist activity at mouse SSTR3 expressed in CHO cells assessed as cAMP level by fluorescence analysis; assay type: functional, cell-based
Sequence (P30935 whole entry): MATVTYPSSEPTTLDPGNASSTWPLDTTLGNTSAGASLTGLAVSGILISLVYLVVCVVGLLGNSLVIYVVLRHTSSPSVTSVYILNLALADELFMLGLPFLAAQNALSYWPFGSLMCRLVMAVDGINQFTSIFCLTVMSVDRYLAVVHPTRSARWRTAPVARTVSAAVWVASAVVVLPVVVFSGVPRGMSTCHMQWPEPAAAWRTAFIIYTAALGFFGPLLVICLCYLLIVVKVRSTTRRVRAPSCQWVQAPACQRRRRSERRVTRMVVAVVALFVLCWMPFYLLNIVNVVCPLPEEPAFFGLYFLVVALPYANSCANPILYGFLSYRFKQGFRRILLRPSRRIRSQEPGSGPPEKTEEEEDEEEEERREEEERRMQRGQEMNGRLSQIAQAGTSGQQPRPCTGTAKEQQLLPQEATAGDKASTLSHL
Experimental Readout: IC50 (nM)
State just the number; it will be interpreted in nM.

Use these answered entries as a reference point.
[
  {
    "Compound": "Cn1cc(C2(c3cc(C(=O)O)ccn3)N[C@@H](c3nc(-c4ccc(F)cc4)c[nH]3)Cc3c2[nH]c2ccccc32)cn1 (single isomer, unassigned; 3B)",
    "Observed Result": 17.1
  },
  {
    "Compound": "CCOC(=O)c1ccc(C2(c3cnn(C)c3)N[C@@H](c3nc(-c4ccc(F)cc4)c[nH]3)Cc3c2[nH]c2ccccc32)nc1 (single isomer, unassigned; 9B)",
    "Observed Result": 14.2
  },
  {
    "Compound": "CCOC(=O)c1ccnc(C2(c3cnn(C)c3)N[C@@H](c3nc(-c4ccc(F)cc4)c[nH]3)Cc3c2[nH]c2ccccc32)c1 (single isomer, unassigned)",
    "Observed Result": 0.36
  },
  {
    "Compound": "CCOC(=O)c1cncc([C@@]2(c3cnn(C)c3)N[C@@H](c3nc(-c4ccc(F)cc4)c[nH]3)Cc3c2[nH]c2ccccc32)c1",
    "Observed Result": 8.37
  },
  {
    "Compound": "Cn1cc(C2(c3ccc(C(=O)O)cn3)N[C@@H](c3nc(-c4ccc(F)cc4)c[nH]3)Cc3c2[nH]c2ccccc32)cn1 (single isomer, unassigned; 5B)",
    "Observed Result": 1860
  }
]

-- ask Under Somatostatin receptor type 3 (Mus musculus, UniProt P30935): IC50 value of CCOC(=O)c1ccc(C2(c3cnn(C)c3)N[C@@H](c3nc(-c4ccc(F)cc4)c[nH]3)Cc3c2[nH]c2ccccc32)nc1 (single isomer, unassigned; 9A) ?
-- reply 1.53

----------
test: in vivo; conditions: dog, iv, 10 mg/kg
Experimental Readout: Cmax at 0.5 h (µM)
Return type: number; implicit unit µM.

-- ask If you can, please state the reported Cmax at 0.5 h value of Cn1cc(C2(c3cc(C(=O)O)ccn3)N[C@@H](c3nc(-c4ccc(F)cc4)c[nH]3)Cc3c2[nH]c2ccccc32)cn1 (single isomer, unassigned; 3A) .
-- reply 38

----------
biological target: Somatostatin receptor type 5 (Homo sapiens, UniProt P35346)
Sequence (P35346 whole entry): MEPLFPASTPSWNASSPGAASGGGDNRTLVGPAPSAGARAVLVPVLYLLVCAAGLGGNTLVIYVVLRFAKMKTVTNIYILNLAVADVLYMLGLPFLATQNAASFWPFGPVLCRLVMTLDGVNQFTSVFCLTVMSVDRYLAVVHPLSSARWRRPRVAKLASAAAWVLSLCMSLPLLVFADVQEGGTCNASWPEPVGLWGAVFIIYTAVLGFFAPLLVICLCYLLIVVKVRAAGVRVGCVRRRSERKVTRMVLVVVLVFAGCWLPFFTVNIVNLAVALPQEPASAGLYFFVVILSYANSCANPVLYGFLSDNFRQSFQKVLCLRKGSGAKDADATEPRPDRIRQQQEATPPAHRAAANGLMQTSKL
Experimental Readout: IC50

-- ask Tell me reported IC50 for Cn1cc(C2(c3cc(C(=O)O)ccn3)N[C@@H](c3nc(-c4ccc(F)cc4)c[nH]3)Cc3c2[nH]c2ccccc32)cn1 (single isomer, unassigned; 3A) , tested with Somatostatin receptor type 5 (Homo sapiens, UniProt P35346).
-- reply > 10 µM

----------
molecular target: UniProt:P30935; experiment: Antagonist activity at mouse SSTR3 expressed in CHO cells assessed as cAMP level by fluorescence analysis relative to control; assay type: functional, cell-based; set-up: concentration or dose not given beside the values; conditions: concentration not given here
Quick reference: inhibition of the listed items.

[
  {
    "Compound": "CCOC(=O)c1cccc(C2(c3cnn(C)c3)N[C@@H](c3nc(-c4ccc(F)cc4)c[nH]3)Cc3c2[nH]c2ccccc32)n1 (single isomer, unassigned; 6B)",
    "inhibition": "87%"
  },
  {
    "Compound": "CCOC(=O)c1cncc([C@@]2(c3cnn(C)c3)N[C@@H](c3nc(-c4ccc(F)cc4)c[nH]3)Cc3c2[nH]c2ccccc32)c1",
    "inhibition": "107%"
  },
  {
    "Compound": "Cn1cc([C@]2(c3cncc(C(=O)O)c3)N[C@@H](c3nc(-c4ccc(F)cc4)c[nH]3)Cc3c2[nH]c2ccccc32)cn1",
    "inhibition": "80%"
  },
  {
    "Compound": "Cn1cc(C2(c3ccc(C(=O)O)cn3)N[C@@H](c3nc(-c4ccc(F)cc4)c[nH]3)Cc3c2[nH]c2ccccc32)cn1 (single isomer, unassigned; 5A)",
    "inhibition": "87%"
  },
  {
    "Compound": "CCOC(=O)c1cccc(C2(c3cnn(C)c3)N[C@@H](c3nc(-c4ccc(F)cc4)c[nH]3)Cc3c2[nH]c2ccccc32)n1 (single isomer, unassigned; 6A)",
    "inhibition": "80%"
  }
]

Okay, now this compound:
-- ask Please give the measured inhibition for this compound: Cn1cc(C2(c3ccc(C(=O)O)cn3)N[C@@H](c3nc(-c4ccc(F)cc4)c[nH]3)Cc3c2[nH]c2ccccc32)cn1 (single isomer, unassigned; 5B)
-- reply 51%
